Molecular target: NR2F6 (Homo sapiens)
Construct: expressed in transfected cells; also transient transfection
Sequence (P10588 whole entry): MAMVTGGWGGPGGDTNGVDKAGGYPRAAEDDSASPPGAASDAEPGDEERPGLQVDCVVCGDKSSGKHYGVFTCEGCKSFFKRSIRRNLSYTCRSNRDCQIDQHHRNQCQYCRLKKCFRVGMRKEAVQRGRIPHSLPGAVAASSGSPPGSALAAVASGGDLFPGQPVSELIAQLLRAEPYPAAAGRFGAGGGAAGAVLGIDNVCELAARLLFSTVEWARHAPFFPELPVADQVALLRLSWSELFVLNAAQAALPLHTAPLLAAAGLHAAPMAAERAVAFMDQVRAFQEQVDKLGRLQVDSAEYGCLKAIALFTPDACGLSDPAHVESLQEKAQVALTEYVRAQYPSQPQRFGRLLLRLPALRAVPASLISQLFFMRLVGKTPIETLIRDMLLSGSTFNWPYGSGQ
Experiment: NR2F6 agonist screening, Firefly signal cmpd/DMSO
Assay type: cell-based
Conditions: Table 13; repeat 1
property name: Firefly, cmpd/DMSO repeat 1
Give bare numbers.

Examples from the recorded data:
COc1ccc(S(=O)(=O)c2cc3cc(Br)ccc3oc2=O)cc1OC	35.4
Cc1ccc(S(=O)(=O)c2cc3cc(Br)ccc3oc2=O)cc1	17.6
O=c1oc2ccccc2cc1S(=O)(=O)c1ccc(Cl)cc1	5.7

Lab note: each compound below needs its Firefly, cmpd/DMSO repeat 1 filled in.
1. COc1cccc(NC(=O)c2ccc3oc(=O)c(S(=O)(=O)c4ccc(F)cc4)cc3c2)c1
2. Cc1ccc2oc(=O)c(S(=O)(=O)c3cccc(Cl)c3)cc2c1
3. Cc1ccc(S(=O)(=O)c2cc3cc(C(=O)Nc4cc(C)cc(C)c4)ccc3oc2=O)cc1
4. O=c1oc2ccc(Cl)cc2cc1S(=O)(=O)c1cccc(F)c1

Output:
1. 36.7
2. 9.8
3. 13.2
4. 16.2

// data source = patent US11377442B2
